In this section we review reported A/G values for a set of molecules.
species on record: Rattus norvegicus; experiment: Open TG-GATES - Regimen: Daily Repeat; format: toxicity, organism-based, Sprague-Dawley; set-up: regimen Daily Repeat, gender Male, age 6 weeks; conditions: in vivo, po, 100 mg/kg, […], tissue Plasma, route gavage, dose level Low, time 14 day
Field format: numeric only.

Exam item: Item `CN/C(=N/CCSCc1nc[nH]c1C)NC#N` : provide A/G
Marked response: 1.4

Exam item: Let me know recorded A/G for `CNC(=C[N+](=O)[O-])NCCSCc1ccc(CN(C)C)o1` , thanks.
Marked response: 1.4

Exam item: Fill in A/G for record `Cc1nnc2n1-c1ccc(Cl)cc1C(c1ccccc1Cl)=NC2`
Marked response: 0.8

Exam item: Let me know recorded A/G for `O=C(OC[C@H]1O[C@@H](OC(=O)c2cc(O)c(O)c(OC(=O)c3cc(O)c(O)c(O)c3)c2)[C@H](OC(=O)c2cc(O)c(O)c(OC(=O)c3cc(O)c(O)c(O)c3)c2)[C@@H](OC(=O)c2cc(O)c(O)c(OC(=O)c3cc(O)c(O)c(O)c3)c2)[C@@H]1OC(=O)c1cc(O)c(O)c(OC(=O)c2cc(O)c(O)c(O)c2)c1)c1cc(O)c(O)c(OC(=O)c2cc(O)c(O)c(O)c2)c1` , thanks.
Marked response: 1.8

###

species on record: Rattus norvegicus; experiment: Open TG-GATES - Regimen: Daily Repeat; assay type: toxicity, organism-based, Sprague-Dawley; set-up: regimen Daily Repeat, gender Male, age 6 weeks; settings: in vivo, po, 300 mg/kg, […], tissue Plasma, route gavage, dose level Middle, time 14 day
Doc: threshold 40 IU/L (exclusive). Items with ALT beneath it return Met; others return Not met.

Exam item: API: query returns whether the compound falls strictly under 40 IU/L in ALT. Query: CNC(=C[N+](=O)[O-])NCCSCc1ccc(CN(C)C)o1 [RANITIDINE]
Marked response: Met

---
Exam item: Determine whether this compound shows ALT lower than 40 IU/L (ties excluded): CN/C(=N/CCSCc1nc[nH]c1C)NC#N [CIMETIDINE]
Marked response: Met

Exam item: Hello, is ALT of the following compound strictly smaller than 40 IU/L? O=C(OC[C@H]1O[C@@H](OC(=O)c2cc(O)c(O)c(OC(=O)c3cc(O)c(O)c(O)c3)c2)[C@H](OC(=O)c2cc(O)c(O)c(OC(=O)c3cc(O)c(O)c(O)c3)c2)[C@@H](OC(=O)c2cc(O)c(O)c(OC(=O)c3cc(O)c(O)c(O)c3)c2)[C@@H]1OC(=O)c1cc(O)c(O)c(OC(=O)c2cc(O)c(O)c(O)c2)c1)c1cc(O)c(O)c(OC(=O)c2cc(O)c(O)c(O)c2)c1 [TANNIC ACID]
Marked response: Met

###

species: Rattus norvegicus; assay: Open TG-GATES - Regimen: Daily Repeat; type: toxicity, organism-based, Sprague-Dawley; design: regimen Daily Repeat, gender Male, age 6 weeks; details: in vivo, po, 1000 mg/kg, […], tissue Plasma, route gavage, dose level High, time 14 day
Recorded PL by entry
# number only, unit mg/dL dropped from output

Exam item: Give PL for the following compound: Cc1nnc2n1-c1ccc(Cl)cc1C(c1ccccc1Cl)=NC2 [TRIAZOLAM]
Marked response: 157.6

Next:
Exam item: Tell us which PL value is on record for O=C(OC[C@H]1O[C@@H](OC(=O)c2cc(O)c(O)c(OC(=O)c3cc(O)c(O)c(O)c3)c2)[C@H](OC(=O)c2cc(O)c(O)c(OC(=O)c3cc(O)c(O)c(O)c3)c2)[C@@H](OC(=O)c2cc(O)c(O)c(OC(=O)c3cc(O)c(O)c(O)c3)c2)[C@@H]1OC(=O)c1cc(O)c(O)c(OC(=O)c2cc(O)c(O)c(O)c2)c1)c1cc(O)c(O)c(OC(=O)c2cc(O)c(O)c(O)c2)c1 [TANNIC ACID]
Marked response: 145.2
